Observed Ki for Furin (Homo sapiens), reported per entry below.

Examples from the recorded data:
Smiles entry	Ki
C[C@@H](O)[C@H](N)C(=O)N1CCC[C@H]1C(=O)N[C@@H](CCC(N)=O)C(=O)N[C@@H](CCCNC(=N)N)C(=O)NCCCCCC(=O)N[C@@H](CCCNC(=N)N)C(=O)N[C@@H](CCCNC(=N)N)C(=O)N[C@@H](CCCNC(=N)N)C(=O)N[C@@H](CCCCN)C(=O)N[C@@H](CCCCN)C(=O)N[C@@H](CCCNC(=N)N)C(=O)NCC(=O)O	> 100 nM
C[C@@H](O)[C@H](N)C(=O)N1CCC[C@H]1C(=O)N[C@@H](CCCNC(=N)N)C(=O)NCCCCCC(=O)N[C@@H](CCCNC(=N)N)C(=O)N[C@@H](CCCNC(=N)N)C(=O)N[C@@H](CCCNC(=N)N)C(=O)N[C@@H](CCCCN)C(=O)N[C@@H](CCCCN)C(=O)N[C@@H](CCCNC(=N)N)C(=O)NCC(=O)O	> 100 nM

Shift focus to the following entry.
Given the compound `CC(C)C[C@H](NC(=O)[C@H](CCCNC(=N)N)NC(=O)[C@H](CCCCN)NC(=O)[C@H](CCCCN)NC(=O)[C@H](CCCNC(=N)N)NC(=O)[C@H](CCCNC(=N)N)NC(=O)[C@H](CCCNC(=N)N)NC(=O)[C@H](C)NC(=O)[C@H](CCCNC(=N)N)NC(=O)[C@@H]1CCCN1C(=O)[C@@H](N)[C@@H](C)O)C(N)=O` , what is its reported Ki? > 100 nM

----------
Biological target: Furin (Homo sapiens)
pKi: −log10 of the molar value.
Property name: pKi

Substance	pKi
H-TPRFRRRKKRG-NH2	< 7.00

Furin (Homo sapiens) / pKi / `H-TPRARRRKKRF-OH` : value? 7.42

Moving on to the next substance: `H-TPQRARRRKKRQ-OH` < 7.00

Also, `H-TPRERRRKKAV-OH` please. < 7.00

What about `H-TPQRARRRKKRA-OH` ? 6.94

Okay, and `H-TPAERRRKKR-OH` ? < 7.00

----------
pKi: −log10 of the molar value.
Observed pKi values for Furin (Homo sapiens) are listed in what follows.

The following substances have reported results that may help.
Substance	pKi
H-TPRARRRKKRI-NH2	7.52
H-TPRARRRKKRY-OH	7.28
H-TPAERRRKKRV-OH	< 7.00

Consider the substance shown here: `H-TPRERRRKAAG-OH` What is its recorded pKi? < 7.00

Thanks! And `H-TARERRRKKR-OH` ? < 7.00

Now the substance `H-TPRIRRRKKRG-OH` < 7.00

// same read-out, input: `H-TPRERRAKKRG-NH2` < 7.00

Thanks! And `H-TPQRNRRRKKRG-OH` ? < 7.00

----------
Target: Proprotein convertase subtilisin/kexin type 4 (Homo sapiens)
Sequence (Q6UW60 whole entry): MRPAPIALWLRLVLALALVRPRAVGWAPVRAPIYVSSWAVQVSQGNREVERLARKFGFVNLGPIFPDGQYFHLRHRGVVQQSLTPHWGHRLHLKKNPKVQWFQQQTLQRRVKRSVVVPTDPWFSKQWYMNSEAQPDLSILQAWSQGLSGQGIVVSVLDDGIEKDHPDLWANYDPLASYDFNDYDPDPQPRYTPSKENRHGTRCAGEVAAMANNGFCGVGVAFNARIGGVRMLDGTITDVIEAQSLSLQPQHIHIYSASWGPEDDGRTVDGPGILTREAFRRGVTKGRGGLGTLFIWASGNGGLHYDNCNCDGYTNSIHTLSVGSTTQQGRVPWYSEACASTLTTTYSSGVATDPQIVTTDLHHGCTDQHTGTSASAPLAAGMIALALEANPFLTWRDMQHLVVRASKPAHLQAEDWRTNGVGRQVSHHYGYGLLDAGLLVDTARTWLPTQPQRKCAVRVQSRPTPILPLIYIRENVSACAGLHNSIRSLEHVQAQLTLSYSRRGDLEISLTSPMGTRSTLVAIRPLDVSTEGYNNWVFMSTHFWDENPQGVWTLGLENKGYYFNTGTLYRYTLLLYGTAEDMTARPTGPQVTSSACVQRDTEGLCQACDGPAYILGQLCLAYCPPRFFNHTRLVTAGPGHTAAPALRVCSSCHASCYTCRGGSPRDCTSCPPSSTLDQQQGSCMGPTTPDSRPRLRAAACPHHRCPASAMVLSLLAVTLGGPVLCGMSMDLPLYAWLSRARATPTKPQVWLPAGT
Property name: Ki (nM)
Quick note: give the figure in nM, leave out the unit.

# example entries with known answers
Substance	Assayed target	Ki / nM
H-TPRARRRKKRT-NH2	Proprotein convertase subtilisin/kexin type 4 (Homo sapiens)	441
H-TPQRARRRKKRF-OH	Proprotein convertase subtilisin/kexin type 4 (Homo sapiens)	772
H-TPRARRRKKRI-NH2	Proprotein convertase subtilisin/kexin type 4 (Homo sapiens)	562

Which Ki is reported for this substance? `H-TPQRARRRKKRT-OH` 515

Moving on to `H-TPQRARRRKKRY-OH` 624

Would you kindly repeat that for `H-TPQRARRRKKRW-OH` ? 952

----------
Molecular target: Furin (Homo sapiens, UniProt P09958)
Sequence (P09958 whole entry): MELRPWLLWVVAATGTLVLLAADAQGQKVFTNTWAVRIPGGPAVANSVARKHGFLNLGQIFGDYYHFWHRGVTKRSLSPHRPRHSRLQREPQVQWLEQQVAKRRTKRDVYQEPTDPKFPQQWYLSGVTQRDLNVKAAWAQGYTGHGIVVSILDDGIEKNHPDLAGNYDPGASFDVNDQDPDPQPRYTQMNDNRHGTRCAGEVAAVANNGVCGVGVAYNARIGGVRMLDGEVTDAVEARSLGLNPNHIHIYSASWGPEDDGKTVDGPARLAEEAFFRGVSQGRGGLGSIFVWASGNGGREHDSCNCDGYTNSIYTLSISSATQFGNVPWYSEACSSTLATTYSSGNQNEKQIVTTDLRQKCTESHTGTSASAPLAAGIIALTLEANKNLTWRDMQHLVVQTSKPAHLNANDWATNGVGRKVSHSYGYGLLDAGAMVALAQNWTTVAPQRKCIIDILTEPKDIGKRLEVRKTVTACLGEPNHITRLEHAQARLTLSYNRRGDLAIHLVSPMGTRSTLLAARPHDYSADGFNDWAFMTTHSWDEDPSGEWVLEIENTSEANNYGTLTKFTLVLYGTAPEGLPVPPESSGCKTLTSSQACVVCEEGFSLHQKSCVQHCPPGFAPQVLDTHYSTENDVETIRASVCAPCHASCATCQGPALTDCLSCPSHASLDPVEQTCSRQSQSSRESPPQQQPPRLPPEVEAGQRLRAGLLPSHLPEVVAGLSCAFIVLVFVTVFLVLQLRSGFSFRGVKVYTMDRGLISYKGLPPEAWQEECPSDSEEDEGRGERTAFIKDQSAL
Non-standard residues stand in square brackets, D forms with d. Residues, ends and D or L forms follow the SMILES beside them. Sar = CNCC(=O)O
Property name: Ki

Give Ki (Furin (Homo sapiens, UniProt P09958)) of the following compound: C[C@H](NC(=O)[C@H](CCCNC(=N)N)NC(=O)[C@H](CCCNC(=N)N)NC(=O)[C@H](CCC(=O)O)NC(=O)[C@H](CCCNC(=N)N)NC(=O)[C@@H]1CCCN1C(=O)[C@@H](N)[C@@H](C)O)C(=O)N[C@@H](CCCCN)C(=O)N[C@@H](CCCCN)C(=O)N[C@@H](CCCNC(=N)N)C(=O)N(C)CC(=O)O (H-TPRERRAKKR[Sar]-OH) > 100 nM

----------
Molecular target: UniProt P09958
Property name: Ki

Check out these entries, answers already filled in.
Smiles entry	Property name	Value measured
C[C@H](NC(=O)[C@H](CCCNC(=N)N)NC(=O)[C@H](CCC(N)=O)NC(=O)[C@@H]1CCCN1C(=O)[C@@H](N)[C@@H](C)O)C(=O)N[C@@H](CCCNC(=N)N)C(=O)N[C@@H](CCCNC(=N)N)C(=O)N[C@@H](CCCNC(=N)N)C(=O)N[C@@H](CCCCN)C(=O)N[C@@H](CCCCN)C(=O)N[C@H](CCCCN)C(=O)NCC(=O)O	Ki	> 100 nM
C[C@H](NC(=O)[C@H](C)NC(=O)[C@H](CCCN=C(N)N)NC(=O)[C@H](CCCN=C(N)N)NC(=O)[C@H](CCCN=C(N)N)NC(=O)[C@H](CCC(=O)O)NC(=O)[C@H](CCCN=C(N)N)NC(=O)[C@@H]1CCCN1C(=O)[C@@H](N)[C@@H](C)O)C(=O)N[C@@H](CCCN=C(N)N)C(=O)N(C)CC(=O)O	Ki	> 100 nM

Please look at the following compound next.
What measured Ki goes with `C[C@@H](O)[C@H](N)C(=O)N1CCC[C@H]1C(=O)N[C@@H](CCCN=C(N)N)C(=O)N[C@@H](CCCNC(N)=O)C(=O)N[C@@H](CCCN=C(N)N)C(=O)N[C@@H](CCCN=C(N)N)C(=O)N[C@@H](CCCN=C(N)N)C(=O)N[C@@H](CCCCN)C(=O)N[C@@H](CCCCN)C(=O)N[C@@H](CCCN=C(N)N)C(=O)NCC(=O)O` ? > 100 nM

----------
Biological target: UniProt P09958
Non-standard residues stand in square brackets, D forms with d. Residues, ends and D or L forms follow the SMILES beside them. Sar = CNCC(=O)O
Property name: Ki

Worked examples, 8 compounds total:
Compound	Ki
C[C@@H](O)[C@H](N)C(=O)N1CCC[C@H]1C(=O)N[C@@H](CCC(N)=O)C(=O)N[C@@H](CCCNC(=N)N)C(=O)N[C@@H](CCCNC(N)=O)C(=O)N[C@@H](CCCNC(=N)N)C(=O)N[C@@H](CCCNC(=N)N)C(=O)N[C@@H](CCCNC(=N)N)C(=O)N[C@@H](CCCCN)C(=O)N[C@@H](CCCCN)C(=O)N[C@@H](CCCNC(=N)N)C(=O)NCC(=O)O	> 0.1 µM
CSCC[C@H](NC(=O)[C@H](CCCN=C(N)N)NC(=O)[C@H](CCCCN)NC(=O)[C@H](CCCCN)NC(=O)[C@H](CCCN=C(N)N)NC(=O)[C@H](CCCN=C(N)N)NC(=O)[C@H](CCCN=C(N)N)NC(=O)[C@H](C)NC(=O)[C@H](CCCN=C(N)N)NC(=O)[C@@H]1CCCN1C(=O)[C@@H](N)[C@@H](C)O)C(N)=O	> 0.1 µM
C[C@@H](O)[C@H](N)C(=O)N1CCC[C@H]1C(=O)N[C@@H](CCCNC(=N)N)C(=O)N[C@H](CCC(=O)O)C(=O)N[C@@H](CCCNC(=N)N)C(=O)N[C@@H](CCCNC(=N)N)C(=O)N[C@@H](CCCNC(=N)N)C(=O)N[C@@H](CCCCN)C(=O)N[C@@H](CCCCN)C(=O)N[C@@H](CCCNC(=N)N)C(=O)NCC(=O)O	> 0.1 µM
C[C@H](NC(=O)[C@H](CCCNC(=N)N)NC(=O)[C@H](CCCNC(=N)N)NC(=O)[C@H](CCCNC(=N)N)NC(=O)[C@H](CCC(=O)O)NC(=O)[C@H](CCCNC(=N)N)NC(=O)[C@@H]1CCCN1C(=O)[C@@H](N)[C@@H](C)O)C(=O)N[C@@H](CCCCN)C(=O)N[C@@H](CCCNC(=N)N)C(=O)N(C)CC(=O)O (H-TPRERRRAKR[Sar]-OH)	> 0.1 µM
CSC[C@H](NC(=O)[C@H](CCCN=C(N)N)NC(=O)[C@H](CCCCN)NC(=O)[C@H](CCCCN)NC(=O)[C@H](CCCN=C(N)N)NC(=O)[C@H](CCCN=C(N)N)NC(=O)[C@H](CCCN=C(N)N)NC(=O)[C@H](C)NC(=O)[C@H](CCCN=C(N)N)NC(=O)[C@@H]1CCCN1C(=O)[C@@H](N)[C@@H](C)O)C(=O)O	0.065 µM
C[C@@H](O)[C@H](N)C(=O)N1CCC[C@H]1C(=O)N[C@@H](CCCN=C(N)N)C(=O)N[C@@H](CCC(=O)O)C(=O)N[C@@H](CCCN=C(N)N)C(=O)N[C@@H](CCCN=C(N)N)C(=O)N[C@@H](CCCN=C(N)N)C(=O)N[C@@H](CCCCN)C(=O)N[C@@H](CCCCN)C(=O)N[C@@H](CCCNC(=N)N)C(=O)NCC(N)=O	> 0.1 µM
CCCC[C@H](NC(=O)[C@H](CCCNC(=N)N)NC(=O)[C@H](CCCCN)NC(=O)[C@H](CCCCN)NC(=O)[C@H](CCCNC(=N)N)NC(=O)[C@H](CCCNC(=N)N)NC(=O)[C@H](CCCNC(=N)N)NC(=O)[C@H](C)NC(=O)[C@H](CCCNC(=N)N)NC(=O)[C@@H]1CCCN1C(=O)[C@@H](N)[C@@H](C)O)C(=O)O	0.081 µM
C[C@H](N)C(=O)N[C@@H](C)C(=O)N[C@@H](CCCN=C(N)N)C(=O)N[C@@H](CCC(=O)O)C(=O)N[C@@H](CCCN=C(N)N)C(=O)N[C@@H](CCCN=C(N)N)C(=O)N[C@@H](CCCN=C(N)N)C(=O)N[C@@H](CCCCN)C(=O)N[C@@H](CCCCN)C(=O)N[C@@H](CCCN=C(N)N)C(=O)N(C)CC(=O)O (H-AARERRRKKR[Sar]-OH)	> 0.1 µM

Which Ki value belongs to `C[C@@H](O)[C@H](N)C(=O)N1CCC[C@H]1C(=O)N[C@@H](CCC(N)=O)C(=O)N[C@@H](CCCNC(=N)N)C(=O)N[C@@H](CS)C(=O)N[C@@H](CCCNC(=N)N)C(=O)N[C@@H](CCCNC(=N)N)C(=O)N[C@@H](CCCNC(=N)N)C(=O)N[C@@H](CCCCN)C(=O)N[C@@H](CCCCN)C(=O)N[C@@H](CCCNC(=N)N)C(=O)NCC(=O)O` ? > 0.1 µM

And then CSC[C@H](NC(=O)[C@H](CCCNC(=N)N)NC(=O)[C@H](CCCCN)NC(=O)[C@H](CCCCN)NC(=O)[C@H](CCCNC(=N)N)NC(=O)[C@H](CCCNC(=N)N)NC(=O)[C@H](CCCNC(=N)N)NC(=O)[C@H](C)NC(=O)[C@H](CCCNC(=N)N)NC(=O)[C@H](CCC(N)=O)NC(=O)[C@@H]1CCCN1C(=O)[C@@H](N)[C@@H](C)O)C(=O)O (H-TPQRARRRKKRC(Me)-OH) , what is it? 0.093 µM

Would you kindly repeat that for C[C@H](NC(=O)[C@H](CCCCN)NC(=O)[C@H](CCCNC(=N)N)NC(=O)[C@H](CCCNC(=N)N)NC(=O)[C@H](CCCNC(=N)N)NC(=O)[C@H](CCC(=O)O)NC(=O)[C@H](CCCNC(=N)N)NC(=O)[C@@H]1CCCN1C(=O)[C@@H](N)[C@@H](C)O)C(=O)N[C@@H](C)C(=O)N(C)CC(=O)O (H-TPRERRRKAA[Sar]-OH) ? > 0.1 µM

// same read-out, input: `C[C@H](NC(=O)[C@H](CCCNC(=N)N)NC(=O)[C@H](CCC(N)=O)NC(=O)[C@@H]1CCCN1C(=O)[C@@H](N)[C@@H](C)O)C(=O)N[C@@H](CCCNC(=N)N)C(=O)N[C@@H](CCCNC(=N)N)C(=O)N[C@@H](CCCNC(=N)N)C(=O)N[C@@H](CCCCN)C(=O)N[C@@H](CCCCN)C(=O)N[C@@H](CCCNC(=N)N)C(=O)N[C@H](CCCNC(=N)N)C(=O)O` > 0.1 µM
